Human ACC2 (Homo sapiens, UniProt O00763): recorded IC50 for assorted compounds
Sequence (O00763 whole entry): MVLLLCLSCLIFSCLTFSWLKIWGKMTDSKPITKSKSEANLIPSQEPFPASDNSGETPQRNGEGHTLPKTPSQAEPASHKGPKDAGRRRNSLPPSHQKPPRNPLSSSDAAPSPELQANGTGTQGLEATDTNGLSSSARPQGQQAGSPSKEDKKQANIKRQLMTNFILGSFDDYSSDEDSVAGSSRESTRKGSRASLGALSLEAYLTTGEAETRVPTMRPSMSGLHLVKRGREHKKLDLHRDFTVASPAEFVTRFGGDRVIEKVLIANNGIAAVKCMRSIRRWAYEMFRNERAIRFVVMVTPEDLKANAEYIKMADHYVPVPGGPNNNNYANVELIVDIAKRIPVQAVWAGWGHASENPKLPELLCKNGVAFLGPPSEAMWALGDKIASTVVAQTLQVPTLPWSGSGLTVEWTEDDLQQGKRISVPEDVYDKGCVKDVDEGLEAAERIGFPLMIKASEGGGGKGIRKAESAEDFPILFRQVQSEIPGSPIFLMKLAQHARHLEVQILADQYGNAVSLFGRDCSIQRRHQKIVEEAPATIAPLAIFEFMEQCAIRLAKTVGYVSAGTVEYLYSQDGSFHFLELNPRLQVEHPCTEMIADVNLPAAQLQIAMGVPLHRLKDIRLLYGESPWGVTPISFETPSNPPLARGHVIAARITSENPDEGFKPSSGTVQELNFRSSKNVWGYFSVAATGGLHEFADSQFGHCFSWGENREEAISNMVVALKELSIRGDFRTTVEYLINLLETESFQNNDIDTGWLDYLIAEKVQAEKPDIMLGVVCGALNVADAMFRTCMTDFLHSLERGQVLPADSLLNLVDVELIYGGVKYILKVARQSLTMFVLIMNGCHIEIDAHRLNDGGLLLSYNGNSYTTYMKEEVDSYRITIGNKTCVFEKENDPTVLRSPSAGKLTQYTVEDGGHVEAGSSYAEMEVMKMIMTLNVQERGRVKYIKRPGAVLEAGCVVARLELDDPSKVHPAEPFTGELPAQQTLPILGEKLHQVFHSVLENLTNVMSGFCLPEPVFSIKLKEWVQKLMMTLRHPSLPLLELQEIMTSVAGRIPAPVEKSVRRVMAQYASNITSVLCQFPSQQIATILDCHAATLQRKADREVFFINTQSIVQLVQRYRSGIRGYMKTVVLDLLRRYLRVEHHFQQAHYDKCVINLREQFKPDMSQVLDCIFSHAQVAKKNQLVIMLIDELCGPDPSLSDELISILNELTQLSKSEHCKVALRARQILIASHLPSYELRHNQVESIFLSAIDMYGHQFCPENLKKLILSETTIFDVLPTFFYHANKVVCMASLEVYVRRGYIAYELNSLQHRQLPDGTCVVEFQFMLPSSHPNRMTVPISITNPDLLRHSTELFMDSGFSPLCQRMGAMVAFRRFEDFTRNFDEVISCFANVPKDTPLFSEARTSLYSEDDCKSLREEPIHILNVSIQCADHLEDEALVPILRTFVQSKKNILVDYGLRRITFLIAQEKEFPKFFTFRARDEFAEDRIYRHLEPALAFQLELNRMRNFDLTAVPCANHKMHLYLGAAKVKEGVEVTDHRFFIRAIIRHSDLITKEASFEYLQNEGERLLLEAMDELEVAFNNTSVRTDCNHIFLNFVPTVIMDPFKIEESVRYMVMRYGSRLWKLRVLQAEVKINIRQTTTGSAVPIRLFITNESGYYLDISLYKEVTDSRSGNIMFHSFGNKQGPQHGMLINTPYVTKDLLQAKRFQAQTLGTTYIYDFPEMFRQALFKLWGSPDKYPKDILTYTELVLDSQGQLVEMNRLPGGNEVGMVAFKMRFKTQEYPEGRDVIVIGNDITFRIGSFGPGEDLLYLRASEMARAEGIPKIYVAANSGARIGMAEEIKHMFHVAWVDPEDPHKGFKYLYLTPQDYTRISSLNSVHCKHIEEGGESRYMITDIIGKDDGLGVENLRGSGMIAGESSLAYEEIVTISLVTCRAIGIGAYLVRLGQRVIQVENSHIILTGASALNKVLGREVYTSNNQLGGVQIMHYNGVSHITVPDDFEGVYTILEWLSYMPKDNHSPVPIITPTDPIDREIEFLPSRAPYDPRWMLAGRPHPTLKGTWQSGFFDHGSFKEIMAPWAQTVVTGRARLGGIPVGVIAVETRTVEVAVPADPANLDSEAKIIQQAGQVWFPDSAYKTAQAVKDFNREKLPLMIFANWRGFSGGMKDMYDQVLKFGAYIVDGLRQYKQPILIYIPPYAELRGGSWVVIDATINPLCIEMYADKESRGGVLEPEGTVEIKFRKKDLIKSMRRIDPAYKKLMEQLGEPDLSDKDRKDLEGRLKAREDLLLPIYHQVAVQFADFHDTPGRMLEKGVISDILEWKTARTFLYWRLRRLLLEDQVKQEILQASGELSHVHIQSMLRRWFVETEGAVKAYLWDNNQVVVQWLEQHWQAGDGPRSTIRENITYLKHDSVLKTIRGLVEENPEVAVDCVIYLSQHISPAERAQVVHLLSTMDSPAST

In the examples that follow, each entry is paired with its recorded IC50.
| COMPOUND | IC50 |
| --- | --- |
| COc1ccc(F)cc1[C@H](Cn1c(=O)n([C@@H]2CCN(C)C2=O)c(=O)c2c(C)c(-n3nccn3)sc21)O[C@H]1C[C@@H](O)C1 [Compound I-183] | 2 to 10 nM |
| COCCO[C@@H](Cn1c(=O)n([C@H]2CCCN(C)C2=O)c(=O)c2c(C)c(-n3nccn3)sc21)c1cc(F)ccc1OC [Compound I-31] | 10 to 100 nM |
| COCCO[C@@H](Cn1c(=O)n([C@@H]2CNC(=O)C2)c(=O)c2c(C)c(-n3nccn3)sc21)c1cc(F)ccc1OC [Compound I-90] | 2 to 10 nM |

Items follow; give IC50 for each.
1. COc1ccc(F)cc1[C@H](Cn1c(=O)n([C@@]2(C)CCC(=O)N(C)C2)c(=O)c2c(C)c(-n3nccn3)sc21)OCCO [Compound I-143]
2. COCCO[C@@H](Cn1c(=O)n([C@]2(C)CCNC2=O)c(=O)c2c(C)c(-n3nccn3)sc21)c1cc(F)ccc1OC [Compound I-140]
3. COc1ccc(F)cc1[C@H](Cn1c(=O)n([C@@H]2CCCN(C)C2=O)c(=O)c2c(C)c(-n3nccn3)sc21)OCCO [Compound I-73]
4. CCN1CCCC(n2c(=O)c3c(C)c(-n4nccn4)sc3n(C[C@H](OCCO)c3cc(F)ccc3OC)c2=O)C1=O (stereo partly shown) [Compound I-19]
5. COCCO[C@@H](Cn1c(=O)n([C@H]2CNC(=O)C2)c(=O)c2c(C)c(-n3nccn3)sc21)c1cc(F)ccc1OC [Compound I-88]
6. COc1ccc(F)cc1[C@H](Cn1c(=O)n([C@H]2CCN(C)C2=O)c(=O)c2c(C)c(-n3cccn3)sc21)O[C@H]1CC[C@@H](O)CC1 [Compound I-182]
7. COc1ccc(F)cc1[C@H](Cn1c(=O)n([C@@H]2CCNC2=O)c(=O)c2c(C)c(-n3nccn3)sc21)OC1CCOCC1 [Compound I-34]
8. COc1ccc(F)cc1[C@H](Cn1c(=O)n([C@]2(C)CCN(C)C2=O)c(=O)c2c(C)c(-n3nccn3)sc21)OCCO [Compound I-147]

Response:
2 to 10 nM
> 1000 nM
10 to 100 nM
10 to 100 nM
10 to 100 nM
10 to 100 nM
2 to 10 nM
> 1000 nM

Items follow; give IC50 for each.
1. COCCO[C@@H](Cn1c(=O)n(CCN2CCCCC2=O)c(=O)c2c(C)c(-n3nccn3)sc21)c1cc(F)ccc1OC [Compound I-98]
2. COCCO[C@@H](Cn1c(=O)n([C@]2(C)CCN(C)C2=O)c(=O)c2c(C)c(-n3nccn3)sc21)c1cc(F)ccc1OC [Compound I-146]
3. COc1ccc(F)cc1[C@H](Cn1c(=O)n([C@H]2CCCN(C)C2=O)c(=O)c2c(C)c(-n3nccn3)sc21)OCCC#N [Compound I-116]
4. COc1ccc(F)cc1[C@H](Cn1c(=O)n([C@H]2CCN(C)C2=O)c(=O)c2c(C)c(-c3ncco3)sc21)O[C@H]1CC[C@@H](O)CC1 [Compound I-194]
5. COc1ccc(F)cc1[C@H](Cn1c(=O)n([C@H]2CCCNC2=O)c(=O)c2c(C)c(-c3ncco3)sc21)OCCO [Compound I-62]

Response:
1: 10 to 100 nM; 2: > 1000 nM; 3: 10 to 100 nM; 4: 2 to 10 nM; 5: 10 to 100 nM

Items follow; give IC50 for each.
1. COCCO[C@@H](Cn1c(=O)n(C2CCCNC2=O)c(=O)c2c(C)c(-n3nccn3)sc21)c1cc(F)ccc1OC (stereo partly shown) [Compound I-13]
2. CCN1CCCC(n2c(=O)c3c(C)c(-n4nccn4)sc3n(C[C@H](OCCOC)c3cc(F)ccc3OC)c2=O)C1=O (stereo partly shown) [Compound I-15]
3. COc1ccc(F)cc1[C@H](COc1nc2sc(-n3nccn3)c(C)c2c(=O)n1C1CC(=O)N(C)C1)OCCO (stereo in doubt) [Compound I-113]

Response:
1. 10 to 100 nM
2. 10 to 100 nM
3. > 1000 nM

Items follow; give IC50 for each.
1. CCN1CC[C@H](n2c(=O)c3c(C)c(-n4nccn4)sc3n(C[C@H](OC3CCOCC3)c3cc(F)ccc3OC)c2=O)C1=O [Compound I-150]
2. COCCO[C@@H](Cn1c(=O)n([C@H]2CCCN(C(C)C)C2=O)c(=O)c2c(C)c(-n3nccn3)sc21)c1cc(F)ccc1OC [Compound I-78]
3. COc1ccc(F)cc1C(=O)Cn1c(=O)n(C2CCN(C)C2=O)c(=O)c2c(C)c(-n3nccn3)sc21 (stereo in doubt) [Compound I-162]
4. COc1ccc(F)cc1[C@H](Cn1c(=O)n([C@H]2CCCN(C)C2=O)c(=O)c2c(C)c(-n3nccn3)sc21)OCCO [Compound I-72]
5. COc1ccc(F)cc1[C@H](Cn1c(=O)n([C@]2(C)CCCN(C)C2=O)c(=O)c2c(C)c(-n3nccn3)sc21)OCCO [Compound I-129]

Response:
1: 2 to 10 nM; 2: 10 to 100 nM; 3: 100 to 1000 nM; 4: 2 to 10 nM; 5: 10 to 100 nM

Prompt: Param readout= IC50; system= Human ACC2 (Homo sapiens, UniProt O00763); entry= COc1ccc(F)cc1[C@H](Cn1c(=O)n([C@@H]2CCCNC2=O)c(=O)c2c(C)c(-c3ncco3)sc21)OCCO [Compound I-64] ; returns value.
Response: 10 to 100 nM

Ref: patent US20190330224A1
